tested on: Staphylococcus aureus FDA 209P; assay: MIC, Staphylococcus aureus FDA 209P (SA(2)); format: cell-based; settings: Staphylococcus aureus, FDA209P, Staphylococcus aureus FDA 209P; read-out: MIC SA (2)
outcome measure: MIC

Task: # lookup: MIC of C#CC[N+](C)(C)C1CC(C)OC(OC2C(C)C(OC3CC(C)(OC)C(O)C(C)O3)C(C)C(=O)OC(CC)C3(C)OC(C)(C)OC3C(C)C3=C(C)CC2(C)O3)C1O (centres unmarked) [Compound 55]
Output: 12.5 µg/mL

Task: # lookup: MIC of CC[C@H]1OC(=O)[C@H](C)[C@@H](O[C@H]2C[C@@](C)(OC)[C@@H](O)[C@H](C)O2)[C@H](C)[C@@H](O[C@@H]2O[C@H](C)C[C@H]([N+](C)(C)C)[C@H]2O)[C@@]2(C)CC(C)C3(O[C@@]1(C)[C@H](O)[C@H]3C)O2 (some centres unmarked) [Compound 70]
Output: > 100 µg/mL

---

Provide the recorded MIC for the entries that follow.
test system: Klebsiella pneumoniae ATCC 10031; test: MIC, Klebsiella pneumoniae ATCC 10031 (KP); assay type: cell-based; settings: ATCC10031; Klebsiella pneumoniae ATCC 10031; read-out: MIC KP

Task: # lookup: MIC of C#CC[N+](C)(C)C1CC(C)OC(OC2C(C)C(OC3CC(C)(OC)C(O)C(C)O3)C(C)C(=O)OC(CC)C3(C)OC(C)(C)OC3C(C)C3=C(C)CC2(C)O3)C1O (stereo not drawn)
Output: > 100 µg/mL

Task: # lookup: MIC of CCC1OC(=O)C(C)C(OC2CC(C)(OC)C(O)C(C)O2)C(C)C(OC2OC(C)CC([N+](C)(C)CC)C2O)C2(C)CC(C)=C(O2)C(C)C(O)C1(C)O (stereo not drawn)
Output: > 100 µg/mL

Task: # lookup: MIC of C=CCN(C)C1CC(C)OC(OC2C(C)C(OC3CC(C)(OC)C(O)C(C)O3)C(C)C(=O)OC(CC)C(C)(O)C(O)C(C)C3=C(C)CC2(C)O3)C1O (stereo not drawn)
Output: > 100 µg/mL

---

system: Staphylococcus aureus ATCC 6538P; assay: MIC, Staphylococcus aureus ATCC 6538P (SA(1)); assay type: cell-based; conditions: Staphylococcus aureus, ATCC6538P, Staphylococcus aureus ATCC 6538P; read-out: MIC SA (1)
Provide the recorded MIC for the entries that follow.

Task: # lookup: MIC of CC[C@H]1OC(=O)[C@H](C)[C@@H](O[C@H]2C[C@@](C)(OC)[C@@H](O)[C@H](C)O2)[C@H](C)[C@@H](O[C@@H]2O[C@H](C)C[C@H]([N+](C)(C)C)[C@H]2O)[C@@]2(C)CC(C)C3(O[C@@]1(C)[C@H](O)[C@H]3C)O2 (some centres unmarked)
Output: > 100 µg/mL

Task: # lookup: MIC of C=CC[N+](C)(C)[C@H]1C[C@@H](C)O[C@@H](O[C@@H]2[C@@H](C)[C@H](O[C@H]3C[C@@](C)(OC)[C@@H](O)[C@H](C)O3)[C@@H](C)C(=O)O[C@H](CC)[C@@](C)(O)[C@H](O)[C@@H](C)C(=O)[C@H](C)C[C@@]2(C)O)[C@@H]1O
Output: 25 µg/mL

Task: # lookup: MIC of CCC1OC(=O)C(C)C(OC2CC(C)(OC)C(O)C(C)O2)C(C)C(OC2OC(C)CC([N+](C)(C)CC)C2O)C2(C)CC(C)=C(O2)C(C)C(OC(C)=O)C1(C)OC(C)=O (centres unmarked)
Output: 100 µg/mL

Task: # lookup: MIC of CC[C@H]1OC(=O)[C@H](C)[C@@H](O[C@H]2C[C@@](C)(OC)[C@@H](O)[C@H](C)O2)[C@H](C)[C@@H](O[C@@H]2O[C@H](C)C[C@H](N(C)C)[C@H]2O)[C@@]2(C)CC(C)C3(O[C@@]1(C)[C@H](O)[C@H]3C)O2 (some centres unmarked) [*2 (EM202), Anhydroerythromycin A, reference compound]
Output: 12.5 µg/mL

Task: # lookup: MIC of CCC1OC(=O)C(C)C(OC2CC(C)(OC)C(O)C(C)O2)C(C)C(OC2OC(C)CC([N+](C)(C)CCO)C2O)C2(C)CC(C)=C(O2)C(C)C(O)C1(C)O (centres unmarked)
Output: > 100 µg/mL

Task: # lookup: MIC of CCC1OC(=O)C(C)C(OC2CC(C)(OC)C(O)C(C)O2)C(C)C(OC2OC(C)CC([N+]3(CC)CCCC3)C2O)C2(C)CC(C)=C(O2)C(C)C(O)C1(C)O (centres unmarked)
Output: > 100 µg/mL

Task: # lookup: MIC of CCC1OC(=O)C(C)C(OC2CC(C)(OC)C(O)C(C)O2)C(C)C(OC2OC(C)CC(N3CCCC3)C2O)C2(C)CC(C)=C(O2)C(C)C(O)C1(C)O (centres unmarked)
Output: > 100 µg/mL

Task: # lookup: MIC of C=CC[N+](C)(CC=C)C1CC(C)OC(OC2C(C)C(OC3CC(C)(OC)C(O)C(C)O3)C(C)C(=O)OC(CC)C(C)(O)C(O)C(C)C3=C(C)CC2(C)O3)C1O (centres unmarked)
Output: 100 µg/mL

Task: # lookup: MIC of CCC1OC(=O)C(C)C(OC2CC(C)(OC)C(O)C(C)O2)C(C)C(OC2OC(C)CC([N+]3(CC)CCCCC3)C2O)C2(C)CC(C)=C(O2)C(C)C(O)C1(C)O (centres unmarked)
Output: > 100 µg/mL

Task: # lookup: MIC of C=CCNC1CC(C)OC(OC2C(C)C(OC3CC(C)(OC)C(O)C(C)O3)C(C)C(=O)OC(CC)C(C)(O)C(O)C(C)C3=C(C)CC2(C)O3)C1O (centres unmarked)
Output: > 100 µg/mL

Task: # lookup: MIC of CCC1OC(=O)C(C)C(OC2CC(C)(OC)C(O)C(C)O2)C(C)C(OC2OC(C)CC([N+](C)(C)CC#N)C2O)C2(C)CC(C)=C(O2)C(C)C(O)C1(C)O (centres unmarked)
Output: > 100 µg/mL

Task: # lookup: MIC of CCC1OC(=O)C(C)C(OC2CC(C)(OC)C(O)C(C)O2)C(C)C(OC2OC(C)CC([N+](C)(C)CC(=O)OC)C2O)C2(C)CC(C)=C(O2)C(C)C(O)C1(C)O (centres unmarked)
Output: > 100 µg/mL

Task: # lookup: MIC of CC[C@H]1OC(=O)[C@H](C)[C@@H](O[C@H]2C[C@@](C)(OC)[C@@H](OC=O)[C@H](C)O2)[C@H](C)[C@@H](O[C@@H]2O[C@H](C)C[C@H]([N+](C)(C)CC)[C@H]2O)[C@@]2(C)CC(C)=C(O2)[C@H](C)[C@@H](O)[C@]1(C)O
Output: > 100 µg/mL

Task: # lookup: MIC of C#CC[N+](C)(CC#C)C1CC(C)OC(OC2C(C)C(OC3CC(C)(OC)C(O)C(C)O3)C(C)C(=O)OC(CC)C(C)(O)C(O)C(C)C3=C(C)CC2(C)O3)C1O (centres unmarked)
Output: 100 µg/mL

Task: # lookup: MIC of CCC1OC(=O)C(C)C(OC2CC(C)(OC)C(O)C(C)O2)C(C)C(OC2OC(C)CC(NC)C2O)C2(C)CC(C)=C(O2)C(C)C(OC(C)=O)C1(C)OC(C)=O (centres unmarked)
Output: > 100 µg/mL

Task: # lookup: MIC of C#CC[N+](C)(C)C1CC(C)OC(OC2C(C)C(OC3CC(C)(OC)C(O)C(C)O3)C(C)C(=O)OC(CC)C(C)(OC(C)=O)C(OC(C)=O)C(C)C3=C(C)CC2(C)O3)C1O (centres unmarked)
Output: 50 µg/mL

Task: # lookup: MIC of C#CCN(CC=C)C1CC(C)OC(OC2C(C)C(OC3CC(C)(OC)C(O)C(C)O3)C(C)C(=O)OC(CC)C(C)(O)C(O)C(C)C3=C(C)CC2(C)O3)C1O (centres unmarked)
Output: > 100 µg/mL

Task: # lookup: MIC of C#CC[N+](C)(C)C1CC(C)OC(OC2C(C)C(OC3CC(C)(OC)C(O)C(C)O3)C(C)C(=O)OC(CC)C3(C)OC(=O)OC3C(C)C3=C(C)CC2(C)O3)C1O (centres unmarked)
Output: 25 µg/mL

Task: # lookup: MIC of C#CCN(C)C1CC(C)OC(OC2C(C)C(OC3CC(C)(OC)C(O)C(C)O3)C(C)C(=O)OC(CC)C(C)(O)C(O)C(C)C3=C(C)CC2(C)O3)C1O (centres unmarked)
Output: > 100 µg/mL

Task: # lookup: MIC of CCC1OC(=O)C(C)C(OC2CC(C)(OC)C(O)C(C)O2)C(C)C(OC2OC(C)CC([N+](C)(C)CC)C2O)C2(C)CC(C)=C(O2)C(C)C(OS(C)(=O)=O)C1(C)O (centres unmarked)
Output: > 100 µg/mL
